Measured values drawn from patent US20130224224A1 for this set.

Measured IC50, fractalkine induced chemotaxis, listed per entry.
- Target or system: T1, human CX3CR1 (human, UniProt P49238 1-355)
- T1 sequence: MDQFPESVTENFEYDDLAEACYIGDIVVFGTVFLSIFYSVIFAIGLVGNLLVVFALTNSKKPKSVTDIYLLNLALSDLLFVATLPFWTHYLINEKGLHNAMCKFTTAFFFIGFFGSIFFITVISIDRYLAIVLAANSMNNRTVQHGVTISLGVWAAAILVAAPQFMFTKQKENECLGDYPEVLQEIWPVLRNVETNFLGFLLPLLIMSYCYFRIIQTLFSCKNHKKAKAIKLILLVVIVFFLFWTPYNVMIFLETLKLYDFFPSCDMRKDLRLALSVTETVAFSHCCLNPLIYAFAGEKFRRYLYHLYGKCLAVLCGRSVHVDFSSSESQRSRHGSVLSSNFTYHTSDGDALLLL
- Measurement protocol: cell-based or functional assay
Give just the numeric value; nM need not be written.

Below: 2 binders and their reported IC50, fractalkine induced chemotaxis.
>>> reading("CX3CR1BII012 (VHH, expressed in E. coli as described for the monovalent VHHs) EVQLVESGGGSVQAGGSLRLSCAASGSIFSSNAMAWYRQAPGKQRDLVAGINSVGITKYADSVKGRFTISRDNAKNTVYLQMNSLKPEDTAVYYCTSDPRRGWDTRYWGQGTLVTVSSGGGGSGGGGSGGGGSGGGGSGGGGSGGGGSGGGGSKVQLVESGGGLVQPGGSLRLSCATSGTIFSNNAMGWYRQAPGKKRDLVASISSSGSTNYADSVKGRFTVSRDNDKNTGYLQMNSLKPEDTGVYYCTLDARRGWNTAYWGQGAQVTVSS")
4
>>> reading("CX3CR1BII017 (VHH, expressed in E. coli as described for the monovalent VHHs) EVQLVESGGGSVQAGESLRLSCAASGSIFSSNAMAWYRQAPPGKQRDLVALINSVGITKYADSVKGRFTISSDNAKNTVYLEMNSLKPEDTAVYYCTSDGRRGWDTRYWGQGTQVTVSSGGGGSGGGGSGGGGSGGGGSGGGGSGGGGSGGGGSEVQLVESGGGSVQAGESLRLSCAASGSIFSSNAMAWYRQAPPGKQRDLVALINSVGITKYADSVKGRFTISSDNAKNTVYLEMNSLKPEDTAVYYCTSDGRRGWDTRYWGQGTQVTVSS")
3

Please find the next binder below.
Inquiry: Return reported IC50, fractalkine induced chemotaxis; argument: CX3CR1BII027 (VHH, expressed in E. coli as described for the monovalent VHHs) EVQLVESGGGLVQAGGSLRLSCVASGRTFSSYAMGWFRQAPGKERAFVAGISGSASRKYYADSVKGRFTVSRDNARNTVYLQMNSLKPEDTAVYYCAASNSYPKVQFDYYGQGTQVTVSSGGGGSGGGGSGGGGSGGGGSGGGGSGGGGSGGGGSEVQLVESGGGSVQAGESLRLSCAASGSIFSSNAMAWYRQAPGKQRDLVAGINSVGITKYADSVKGRFTISRDNAKNTAYLQMNSLKPEDTAVYYCTSDPRRGWDTRYWGQGTLVTVSS
Reply text: 0.9
